// reported Ratio IC50 to 056-53.H4E IC50 for each item listed
- tested.target: T1, recombinant human IL-23R/Fc chimera (R&D Systems) (human, UniProt Q5VWK5 24-353)
- T1 construct: bought; also called human IL-23R/Fc fusion protein; rhIL23RFc
- T1 sequence (looked up): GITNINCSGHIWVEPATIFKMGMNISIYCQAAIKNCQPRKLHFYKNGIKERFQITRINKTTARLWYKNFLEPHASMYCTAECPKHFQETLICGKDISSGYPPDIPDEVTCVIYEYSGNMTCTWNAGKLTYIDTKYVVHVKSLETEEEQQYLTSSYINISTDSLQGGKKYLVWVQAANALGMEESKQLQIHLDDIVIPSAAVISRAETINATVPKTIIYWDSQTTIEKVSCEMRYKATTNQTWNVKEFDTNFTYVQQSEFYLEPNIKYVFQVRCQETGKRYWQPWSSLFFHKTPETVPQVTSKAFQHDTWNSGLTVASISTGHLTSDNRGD
- protocol.details: competition ELISA against IL-23

| binder | reading |
| --- | --- |
| 105-20-2C4b ATRIMER (designed binder, Forms a homotrimer (ATRIMER) through the tetranectin coiled coil; one protomer is given., not shown: C-terminal tag) EPPTQKPKKIVNAKKDVVNTKMFEELKSRLDTLAQEVALLKEQQALQTVCLKGTKVHMKCFLAFTQTKTFHEASEDCISRGGTLSTPQTGSENDALYEYLRQSVGNEAEIWLGLNGSVKTDTWVDMTGARIAYKNWETEITAQPDGGWGYFGENCAVLSGAANGKWFDKRCRDQLPYICQFGIV | 4.2 ratio |

Here's the next entry for you.
Q: For the binder 105-08-1B1 ATRIMER (designed binder, Homotrimer of the given chain (ATRIMER complex).) EPPTQKPKKIVNAKKDVVNTKMFEELKSRLDTLAQEVALLKEQQALQTVCLKGTKVHMKCFLAFTQTKTFHEASEDCISRGGTLSTPQTGSENDALYEYLRQSVGNEAEIWLGLNGSPRTQTWVDMTGARIAYKNWETEITAQPDGGFGYFGENCAVLSGAANGKWFDKRCRDQLPYICQFGIV , report Ratio IC50 to 056-53.H4E IC50.
Ans: 3.3 ratio

The reported numbers originate from patent US20110086770A1.
